Cited source: patent US10273257B2

# Test system: EB-DNA system (CT DNA treated with EB)
# procedure-summary: Ethidium bromide displacement fluorescence quenching (Stern-Volmer)
# Type: binding, calf
# condition-info: EB-bound CT DNA, emission at 585-590 nm
endpoint-label: Stern-Volmer quenching constant KSV
Answers are plain numbers.

INSERT INTO measurements (compound, endpoint_label, reported_result) VALUES
  ('CCN(CC)C(=S)[S][Au-][P+](C)(C)C [Complex 3, (Me)3PAu(S2CN{Et}2)]', 'Stern-Volmer quenching constant KSV', 0.67),
  ('CN(C)C(=S)[S][Au-][P+](C)(C)C [Complex 1, (Me)3PAu(S2CN{Me}2)]', 'Stern-Volmer quenching constant KSV', 0.19),
  ('CCN(CC)C(=S)[S][Au-][P+](CC)(CC)CC [Complex 4, (Et)3PAu(S2CN{Et}2)]', 'Stern-Volmer quenching constant KSV', 0.91),
  ('CC[P+](CC)(CC)[Au-][S]C(=S)N(C)C [Complex 2, (Et)3PAu(S2CN{Me}2)]', 'Stern-Volmer quenching constant KSV', 0.34);

Consider CC(C)[P+]([Au-][S]C(=S)N(C)C)(C(C)C)C(C)C [Complex 5, (i-Pr)3PAu(S2CN{Me}2)] . Its measured Stern-Volmer quenching constant KSV is 0.10
